- TESTED TARGET: Fatty acid synthase (Homo sapiens, UniProt P49327)
- Sequence (P49327 whole entry): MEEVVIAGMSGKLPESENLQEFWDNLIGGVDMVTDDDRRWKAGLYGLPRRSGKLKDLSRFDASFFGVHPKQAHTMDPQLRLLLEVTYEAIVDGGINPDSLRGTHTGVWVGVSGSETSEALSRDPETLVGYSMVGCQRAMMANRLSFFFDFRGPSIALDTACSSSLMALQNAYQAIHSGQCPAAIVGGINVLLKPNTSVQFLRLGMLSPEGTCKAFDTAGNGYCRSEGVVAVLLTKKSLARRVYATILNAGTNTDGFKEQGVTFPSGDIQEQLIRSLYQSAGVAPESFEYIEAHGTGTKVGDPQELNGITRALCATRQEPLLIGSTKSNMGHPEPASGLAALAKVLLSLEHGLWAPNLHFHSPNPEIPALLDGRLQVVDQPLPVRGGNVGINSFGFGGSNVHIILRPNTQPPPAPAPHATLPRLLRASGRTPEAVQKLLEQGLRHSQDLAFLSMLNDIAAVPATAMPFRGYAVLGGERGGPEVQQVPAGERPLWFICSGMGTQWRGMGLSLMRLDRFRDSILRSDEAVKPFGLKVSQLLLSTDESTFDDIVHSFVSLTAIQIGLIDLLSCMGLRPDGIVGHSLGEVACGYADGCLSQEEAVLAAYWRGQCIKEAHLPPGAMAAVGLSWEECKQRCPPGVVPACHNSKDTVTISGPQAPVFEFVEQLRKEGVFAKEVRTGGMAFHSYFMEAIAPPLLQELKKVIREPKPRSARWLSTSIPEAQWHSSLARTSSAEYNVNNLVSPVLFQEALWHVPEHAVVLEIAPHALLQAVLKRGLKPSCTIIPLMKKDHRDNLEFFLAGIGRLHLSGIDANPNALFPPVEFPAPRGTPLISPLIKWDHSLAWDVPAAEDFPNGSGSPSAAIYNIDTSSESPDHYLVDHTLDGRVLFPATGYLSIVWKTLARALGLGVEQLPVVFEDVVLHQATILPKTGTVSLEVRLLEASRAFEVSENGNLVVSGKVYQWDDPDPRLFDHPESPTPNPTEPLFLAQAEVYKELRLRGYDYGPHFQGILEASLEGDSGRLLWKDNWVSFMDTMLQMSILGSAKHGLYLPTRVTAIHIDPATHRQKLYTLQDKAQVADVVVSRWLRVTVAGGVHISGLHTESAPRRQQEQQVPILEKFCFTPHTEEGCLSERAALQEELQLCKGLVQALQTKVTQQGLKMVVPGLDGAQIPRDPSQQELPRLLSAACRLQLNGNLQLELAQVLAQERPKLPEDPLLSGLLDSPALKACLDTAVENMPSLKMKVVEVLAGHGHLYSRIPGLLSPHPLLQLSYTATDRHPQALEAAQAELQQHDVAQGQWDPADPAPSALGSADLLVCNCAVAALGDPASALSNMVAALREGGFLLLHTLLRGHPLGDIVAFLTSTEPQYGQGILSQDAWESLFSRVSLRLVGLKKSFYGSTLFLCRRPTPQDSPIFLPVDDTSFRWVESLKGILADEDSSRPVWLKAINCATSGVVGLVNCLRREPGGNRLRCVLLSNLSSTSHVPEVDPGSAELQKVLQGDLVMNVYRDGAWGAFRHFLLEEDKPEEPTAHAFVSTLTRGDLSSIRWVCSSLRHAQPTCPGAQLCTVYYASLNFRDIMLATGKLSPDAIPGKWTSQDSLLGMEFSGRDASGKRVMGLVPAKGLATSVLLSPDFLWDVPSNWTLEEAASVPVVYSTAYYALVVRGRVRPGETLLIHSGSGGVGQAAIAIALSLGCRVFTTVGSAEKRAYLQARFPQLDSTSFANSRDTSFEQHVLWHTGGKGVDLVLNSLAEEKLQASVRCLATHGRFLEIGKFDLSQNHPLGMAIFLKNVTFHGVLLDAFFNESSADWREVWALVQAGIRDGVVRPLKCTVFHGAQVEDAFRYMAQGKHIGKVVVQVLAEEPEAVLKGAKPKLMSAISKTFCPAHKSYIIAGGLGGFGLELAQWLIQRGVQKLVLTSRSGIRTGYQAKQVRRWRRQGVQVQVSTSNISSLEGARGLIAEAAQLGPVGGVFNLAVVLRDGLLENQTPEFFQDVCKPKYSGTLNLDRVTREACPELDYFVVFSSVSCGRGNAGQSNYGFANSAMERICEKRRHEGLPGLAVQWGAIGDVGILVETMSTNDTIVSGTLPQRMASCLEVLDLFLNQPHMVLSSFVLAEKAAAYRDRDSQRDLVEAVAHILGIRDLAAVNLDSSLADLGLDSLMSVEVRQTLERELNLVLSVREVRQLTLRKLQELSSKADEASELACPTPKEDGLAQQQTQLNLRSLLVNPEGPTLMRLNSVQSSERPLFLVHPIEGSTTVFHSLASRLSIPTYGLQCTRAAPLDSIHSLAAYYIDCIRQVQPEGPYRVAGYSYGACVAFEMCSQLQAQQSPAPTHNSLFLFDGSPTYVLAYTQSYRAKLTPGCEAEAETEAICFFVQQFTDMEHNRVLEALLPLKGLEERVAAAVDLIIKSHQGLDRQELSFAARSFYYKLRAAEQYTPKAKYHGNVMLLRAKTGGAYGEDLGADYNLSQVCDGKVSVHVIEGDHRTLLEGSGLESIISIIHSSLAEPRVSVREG
- ASSAY EXPLANATION: inhibition of human FAS-TE enzyme activity – biochemical, kinetic fluorescence intensity, dose response (AID 624326);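 also: rate of fluorescence rise from hydrolysis of a fluorogenic O-methyl fluorescein ester substrate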
- Type: functional
The source made the active and inactive calls.
Consider the following compounds and their measured IC50 readings.

CCOC(=O)[C@]12Cc3cc(Cl)ccc3[C@H]1N(C1CCCCC1)C(=O)c1ccccc12 = 4.57 µM (active)
COC(=O)c1ccc(C2c3c(oc4ccc(Cl)cc4c3=O)C(=O)N2CCN2CCOCC2)cc1 (stereo not drawn) = 11.6 µM (active)
Cc1cc(NC(=O)COC(=O)c2cc([N+](=O)[O-])ccc2N2CCOCC2)ccc1Br = 4.33 µM (active)
COC(=O)N1C(=O)[C@](c2ccccc2)(C2CCCCC2)N1C(=O)OC = 0.968 µM (active)
CC(C)(C)OC(=O)NCCc1onc(-c2cccc([N+](=O)[O-])c2)c1C(=O)O = 1.16 µM (active)
Cc1ccc(-c2csc3nc(C(C)C)oc(=O)c23)c(C)c1 = 0.761 µM (active)

The reported Fatty acid synthase (Homo sapiens, UniProt P49327) IC50 of CC1=C(O)C(=O)C(c2c(C)cc(C)c(Br)c2C)=C(O)C1=O is 9.46 µM (active)

Entry O=C(NN1C(=O)C2C(c3ccccc3)C=CC(c3ccccc3)C2C1=O)c1cccc(Br)c1 (stereo not drawn) , tested on Fatty acid synthase (Homo sapiens, UniProt P49327), has a reported IC50 of 9.22 µM (active)

----------
Measured AC50, listed per entry for reference.
- TESTED TARGET: CAAX prenyl protease 2 (Saccharomyces cerevisiae S288c, UniProt Q03530)
- Sequence (Q03530 whole entry): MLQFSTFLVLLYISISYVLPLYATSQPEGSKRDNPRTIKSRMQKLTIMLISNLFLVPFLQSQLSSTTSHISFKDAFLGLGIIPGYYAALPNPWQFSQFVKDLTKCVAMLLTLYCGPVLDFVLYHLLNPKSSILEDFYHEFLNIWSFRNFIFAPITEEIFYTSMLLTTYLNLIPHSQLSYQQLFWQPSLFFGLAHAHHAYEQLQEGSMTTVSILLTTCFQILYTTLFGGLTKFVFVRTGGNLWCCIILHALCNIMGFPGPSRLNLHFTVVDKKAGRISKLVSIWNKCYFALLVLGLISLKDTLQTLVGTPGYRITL
- Assay type: biochemical
Calls of active or inactive are those of the source.

Examples with their reported AC50 follow.
Cc1ccc(S(=O)(=O)Cc2cn3cccnc3n2)cc1 = 16.2 µM (active)
CCc1cc(=O)oc2c3c(cc(OCC(=O)NCCCC(=O)O)c12)OC(C)(C)CC3 = 12.1 µM (active)
COc1ccc(-n2nc(C(=O)NCC(=O)NCc3ccc(F)cc3)c3ccccc3c2=O)cc1 = 5.21 µM (active)

Cc1ccc(/C=N/NC(=O)c2nnn(-c3nonc3N)c2C(C)C)o1 on CAAX prenyl protease 2 (Saccharomyces cerevisiae S288c, UniProt Q03530) gives AC50 = 2.96 µM (active)

----------
A set of compounds tested on Cytochrome P450 1A2 (Homo sapiens, UniProt P05177), with measured AC50:

CNc1ncncc1-c1ccccc1C = 12.6 µM (inconclusive)

get_value(item= Cc1ncsc1C(=O)N1N=C2/C(=C/c3ccccc3)CCCC2C1c1ccccc1 (configuration not stated) , readout=AC50) returns 17.8 µM (inconclusive)

Value of AC50 reported for the compound O=C1CCc2cc(OCCCCc3nnnn3C3CCCCC3)ccc2N1 is 39.8 µM (inconclusive)

So for CC(=O)C1=C(O)[C@@H]2[C@@H]3c4c[nH]c5cccc(c45)C[C@@H]3C(C)(C)N2C1=O , the logged AC50 turned out to be 12.6 µM (inconclusive)

Documented AC50 of C[C@H]1C=C2C=C[C@H](C)[C@H](CC[C@@H]3C[C@@H](O)CC(=O)O3)[C@H]2[C@@H](OC(=O)[C@@H](C)CCO)C1 : 31.6 µM (inconclusive)

AC50 in this record for Cc1nn(Cc2ccc([N+](=O)[O-])cc2)c(=O)n1-c1cccc(F)c1 : 17.8 µM (inconclusive)

COc1cc2c(cc1OC)-c1cc(NCc3ccccn3)nc(=O)n1CC2 yielded AC50 of 35.5 µM (inconclusive)

Reported AC50 of CC12CC(NC(=O)N1c1cccc(C(=O)NCc3ccccc3)c1)c1ccccc1O2 (configuration not stated) : 25.1 µM (inconclusive)

Looking up CCOc1c2ccc(C(=O)NCc3ccc4c(c3)OCO4)cc2nn1CC , I see its AC50 listed as 8.91 µM (inconclusive)

For record Cc1ccc(-[n+]2c(-c3ccc(Br)cc3)cn3c2CCc2ccc4cccnc4c2-3)cc1 the listed AC50 is 25.1 µM (inconclusive)

The recorded AC50 for CCOC(=O)C1=C(C)NC(C)=C(C(=O)OC)[C@H]1c1cccc([N+](=O)[O-])c1 [(R)-NITRENDIPINE] is 31.6 µM (inconclusive)

Looking up C[C@@H]1C[C@H](OC(=O)c2ccccc2O)CC(C)(C)C1 , I see its AC50 listed as 12.6 µM (inconclusive)

The compound listed as CCC/C=C(\CCC)C(NS(=O)(=O)c1ccc(Cl)cc1)c1ccccc1 (configuration not stated) shows AC50 equal to 12.6 µM (inconclusive)

Lab note: Cc1noc(C)c1-c1cc(NC2CCNCC2)ncn1 gave AC50 of 0.126 µM (inconclusive)

AC50 reading for COc1ccc(-n2c(C)cc(C=O)c2C)cc1Cl : 14.1 µM (inconclusive)

response.value for COc1cc(/C=N\Nc2ccc([N+](=O)[O-])cc2)ccc1OCC(=O)Nc1ccc(C)c(C)c1 (field: AC50) = 7.08 µM (inconclusive)

Summary for this compound, COc1ccc2c(=O)c(-c3ccccc3C)c(C)oc2c1 : AC50 is 31.6 µM (inconclusive)

// sample COc1ccc(Oc2ncc3nc(-c4cccc(C#N)c4)c(=O)n(CCC#N)c3n2)cc1 , its AC50 was 25.1 µM (inconclusive)

Reported AC50 for CC(=O)CCCCn1c(=O)c2c(ncn2C)n(C)c1=O was 12.6 µM (inconclusive)

According to the records, this compound CCC(CC)C(=O)Nc1cccc(/C(C)=N/NC(=O)c2c(Br)cnn2C)c1 displays AC50 of 12.6 µM (inconclusive)

Reported AC50 of COc1cccc(/C=N/NC(=O)c2cccc([N+](=O)[O-])c2)c1OS(=O)(=O)c1ccc(C)cc1 : 6.31 µM (inconclusive)

So for Nc1nc(Cl)cc(N2CCOCC2)n1 , the logged AC50 turned out to be 15.8 µM (inconclusive)

These entries and their values trace back to ChEMBL document CHEMBL1201862.
